Experiment: Stability of compound in human plasma assessed as parent compound remaining measured at 4 hrs
Format: ADME, cell-free
Kindly supply the reported Stability values for the records listed here.
The answer is to be given in %; state only the numeric part.

Field Stability (entry `Nc1nc(-c2ccc(NC(=O)Nc3cc(Br)cc(Br)c3)cc2)c[nH]1` ) reads 89

Field Stability (entry `Cl.Cl.Nc1nc(-c2ccc(NC(=O)Nc3ccc(-c4c[nH]c(N)n4)c(F)c3)cc2F)c[nH]1` ) reads 83

Field Stability (entry `Cl.Cl.Nc1nc(-c2ccc(NC(=O)Nc3cccc(-c4c[nH]c(N)n4)c3F)cc2F)c[nH]1` ) reads 76

Field Stability (entry `Nc1nc(-c2cccc(NC(=O)Nc3cccc(-c4c[nH]c(N)n4)c3)c2)c[nH]1` ) reads 88

----------
Kindly supply the reported selectivity ratio values for the records listed here.
Experiment: Therapeutic index, ratio of IC50 for antiproliferative against human HepG2 cells assessed as reduction in cell viability to MIC for potentiation of Clarithromycin antibacterial activity against Acinetobacter baumannii […] assessed as clarithromycin MIC
Assay type: toxicity, cell-based
Details: read-out: TI
Give the value as a plain number.

Field selectivity ratio (entry `Nc1nc(-c2ccc(NC(=O)Nc3cc(Br)cc(Br)c3)cc2)c[nH]1` ) reads 6.3

Field selectivity ratio (entry `Nc1nc(-c2cccc(NC(=O)Nc3cccc(-c4c[nH]c(N)n4)c3)c2)c[nH]1` ) reads 113

Field selectivity ratio (entry `Cl.Cl.Nc1nc(-c2ccc(NC(=O)Nc3cccc(-c4c[nH]c(N)n4)c3F)cc2F)c[nH]1` ) reads 287

Field selectivity ratio (entry `Nc1nc(-c2ccc(NC(=O)c3ccc(Cl)c(Cl)c3)cc2F)c[nH]1` ) reads 2.3

Field selectivity ratio (entry `Cl.Cl.Nc1nc(-c2ccc(NC(=O)Nc3ccc(-c4c[nH]c(N)n4)c(F)c3)cc2F)c[nH]1` ) reads 52.9

----------
Test system: Acinetobacter baumannii
Assay: Potentiation of Clarithromycin antibacterial activity against Acinetobacter baumannii AB5075 assessed as fold reduction in clarithromycin MIC at 7.5 uM incubated for 16 hrs by broth microdilution method
Type: functional
reported.property: fold change (FC)
Give the value as a plain number.

Field fold change (FC) (entry `Cl.Cl.Nc1nc(-c2cc(F)cc(NC(=O)Nc3cc(F)cc(-c4c[nH]c(N)n4)c3)c2)c[nH]1` ) reads 128

Field fold change (FC) (entry `Cl.Cl.Nc1nc(-c2cc(F)cc(NC(=O)Nc3ccc(-c4c[nH]c(N)n4)c(F)c3)c2)c[nH]1` ) reads 128

Field fold change (FC) (entry `Cl.Cl.Nc1nc(-c2ccc(NC(=O)Nc3ccc(-c4c[nH]c(N)n4)c(F)c3)cc2)c[nH]1` ) reads 16

Field fold change (FC) (entry `Cl.Cl.Nc1nc(-c2cccc(NC(=O)Nc3cc(F)cc(-c4c[nH]c(N)n4)c3)c2)c[nH]1` ) reads 32

Field fold change (FC) (entry `Nc1nc(-c2ccc(NC(=O)Nc3cc(Br)cc(Br)c3)cc2)c[nH]1` ) reads 128

Field fold change (FC) (entry `Cl.Cl.Nc1nc(-c2cc(NC(=O)Nc3ccc(F)c(-c4c[nH]c(N)n4)c3)ccc2F)c[nH]1` ) reads 32

Field fold change (FC) (entry `Nc1nc(-c2ccc(NC(=O)c3ccc(Cl)c(Cl)c3)cc2F)c[nH]1` ) reads 32

Field fold change (FC) (entry `Cl.Cl.Nc1nc(-c2cccc(NC(=O)Nc3cccc(-c4c[nH]c(N)n4)c3F)c2F)c[nH]1` ) reads 16

Field fold change (FC) (entry `Nc1nc(-c2cccc(NC(=O)Nc3cccc(-c4c[nH]c(N)n4)c3)c2)c[nH]1` ) reads 32

Field fold change (FC) (entry `Cl.Cl.Nc1nc(-c2ccc(NC(=O)Nc3ccc(-c4c[nH]c(N)n4)c(F)c3)cc2F)c[nH]1` ) reads 64
